meta.source: the antibiotic and cytotoxicity screens of Wong et al. (2023)

- System: HSkMC
- Assay info: cytotoxicity call (relative viability < 0.9)
- Study conditions: 10 µM
Among all 39,000 compounds or so, about 1,500 (3.8%) were called active. The entries come from a sample that favours actives as a whole.
Select the matching outcome among Yes = active, No = inactive

Per the assay record, what outcome was assigned to CCC(=O)Nc1ccc2c(c1)C(=O)N(C)C[C@@H](OC)[C@H](C)CN(C(=O)CN1CCOCC1)[C@H](C)CO2 ?
No

Could you please tell me the result logged for Cc1ccccc1[C@@H](c1ncccc1C)N(C)C(=O)C1CCN(CCOc2ccc(Cl)cc2Cl)CC1 in this assay?
Yes

What did this assay record as the result for C[C@@H]1CN([C@H](C)CO)C(=O)Cc2cc(NS(=O)(=O)c3cccs3)ccc2O[C@H]1CN(C)S(=O)(=O)c1cn(C)cn1 ?
No

What outcome does the record of this test show for COc1nc(=NC(=O)NS(=O)(=O)Nc2cccc3cccnc23)nc(OC)[nH]1 ?
Yes

So what was the verdict on O=C(Oc1cccc2cccnc12)c1ccccc1 in this test?
No

Please share the test call associated with Cc1cccnc1[C@H](c1ccc(F)cc1)N(C)C(=O)C1CCN(CCOc2ccc(Cl)cc2Cl)CC1 .
Yes

Query: recorded result category for COc1ccc(-c2coc3cc(O)cc(OC)c3c2=O)cc1 in this test
No

Write down the call the test reported for this compound. Item: C[C@@H]1CN([C@@H](C)CO)C(=O)c2cccc(NC(=O)c3cnccn3)c2O[C@@H]1CN(C)S(=O)(=O)c1ccccc1
No

Outcome? Cc1cccnc1[C@@H](NC(=O)C1CCN(CCOc2ccc(Cl)cc2Cl)CC1)c1ccc(F)cc1
No

----------
- Test system: HSkMC (human skeletal muscle cells)
- Assay info: cytotoxicity call (relative viability < 0.9)
- Study conditions: 10 µM
About 1,500 (3.8%) of roughly 39,000 compounds were called active. For the sample, actives were picked, then their nearest neighbours and some compounds at random.
Result category, one only: YES for active, NO for inactive

Could you check what this test reported for COc1ccccc1C(=O)Nc1ccc2c(c1)C(=O)N(C)[C@@H]1CC[C@@H](CC(=O)NCc3ccc(Cl)c(Cl)c3)O[C@@H]1CO2 ?
NO

Kindly provide the recorded test outcome for the following compound: COc1ccccc1C(=O)Nc1ccc2c(c1)C(=O)N(C)[C@H]1CC[C@H](CC(=O)NCc3ccc(Cl)c(Cl)c3)O[C@@H]1CO2
NO

How was CN1C(=O)c2cc(NC(=O)c3ccc(C(F)(F)F)cc3)ccc2OC[C@@H]2O[C@H](CC(=O)NC3Cc4ccccc4C3)CC[C@@H]21 classified in this test?
NO

Field: outcome | Entry: COc1ccccc1C(=O)Nc1ccc2c(c1)C(=O)N(C)[C@@H]1CC[C@@H](CC(=O)NCc3ccc(Cl)c(Cl)c3)O[C@H]1CO2
YES

Look up the recorded call for CN1C(=O)c2cc(NC(=O)c3ccc(C(F)(F)F)cc3)ccc2OC[C@@H]2O[C@H](CC(=O)NC3Cc4ccccc4C3)CC[C@H]21 in this test.
NO

Tell me the assay call for CN1C(=O)c2cc(NC(=O)Nc3cccc(C#N)c3)ccc2OC[C@H]2O[C@@H](CC(=O)Nc3ccc4c(c3)CCC4)CC[C@@H]21 please.
NO

# outcome recorded in this test, key = C[C@H]1CN([C@@H](C)CO)C(=O)c2cc(NC(=O)Nc3ccc(C(F)(F)F)cc3)ccc2O[C@H]1CN(C)Cc1ccccc1
YES
